meta.source: ChEMBL document CHEMBL4613266

molecular target: P2X purinoceptor 1 (Homo sapiens); test: Antagonist activity at non-desensitizing human P2X1 receptor ( P2X2/P2X1 chimera) expressed in human 1321N1 cells assessed as inhibition of ATP-induced calcium influx at 10 uM pre-incubated for 30 mins before ATP stimulation by FLIPR assay relative to control; assay type: cell-based
Each entry below carries its reported inhibition.
Quick note: give the figure in %, leave out the unit.

input smiles	inhibition / %
Cc1cccc(C(=O)Nc2cc(C(F)(F)F)cc(C(F)(F)F)c2)c1O	102

Recorded inhibition (compound `O=C(Nc1cc(O)cc(O)c1)c1cc(Cl)ccc1O` ): 4

Entry `O=C(Nc1cccnc1)c1ccccc1O` — recorded inhibition = 3

So for `O=C(Nc1cc(C(F)(F)F)cc(C(F)(F)F)c1)c1cccnc1O` , the logged inhibition turned out to be 9

Quick note, inhibition for `O=C(Nc1cc([N+](=O)[O-])cc([N+](=O)[O-])c1)c1cc(Cl)ccc1O` landed at 62

response.value for `O=C(Nc1cc(Cl)cc(Cl)c1)c1cc(Cl)ccc1O` (field: inhibition) = 56

Lab note: `O=C(Nc1cc(C(F)(F)F)cc(C(F)(F)F)c1)c1ccccc1O` gave inhibition of 79

// field: inhibition; key: `O=C(Nc1cc(C(F)(F)F)cc(C(F)(F)F)c1)c1cc(O)ccc1O` ; value = 109

---

Catalogue of compounds with associated IC50
biological target: P2X purinoceptor 1 (Homo sapiens, UniProt P51575); assay: Antagonist activity at non-desensitizing human P2X1 receptor ( P2X2/P2X1 chimera) expressed in human 1321N1 cells assessed as inhibition of ATP-induced calcium influx pre-incubated for 30 mins before ATP stimulation by FLIPR assay relative to control
Response body: numeric value in µM, unit text excluded.

Field: example entries. Status: answers known.
> print(dat)
                               input.smiles                       experimental.system  observed.property  recorded.measurement
1  O=C(Nc1cc(C(F)(F)F)cc(C(F)(F)F)c1)c1cc([N+](=O)[O-])ccc1O  P2X purinoceptor 1 (Homo sapiens, UniProt P51575)               IC50                  2.53
2  O=C(Nc1cc(C(F)(F)F)cc(C(F)(F)F)c1)c1cccc(O)c1  P2X purinoceptor 1 (Homo sapiens, UniProt P51575)               IC50                  4.91

Could you now consider this next compound?
Let me check: `O=C(Nc1cccc(OC(F)(F)F)c1)c1cc(Cl)ccc1O` , system P2X purinoceptor 1 (Homo sapiens, UniProt P51575), measured IC50 is 7.62

---

biological target: P2X purinoceptor 1 (Homo sapiens); experiment: Antagonist activity P2X1 receptor in human platelets assessed as inhibition of ADP-induced platelet aggregation pre-incubated for 30 mins before ADP stimulation by aggregometry relative to control; type: cell-based
Below, each of the compounds is paired with its reported inhibition value.
Output spec: scalar in %, unitless text.

Consider the worked cases shown below.
> print(dat)
                               input.smiles  uom  recorded.measurement
1  O=C(Nc1cc(C(F)(F)F)cc(C(F)(F)F)c1)c1ccccc1    %                    47
2     O=C(Nc1ccc(C(F)(F)F)cc1)c1cc(Cl)ccc1O    %                    23
3  O=S(=O)(Nc1cc(C(F)(F)F)cc(C(F)(F)F)c1)c1cc(Cl)ccc1O    %                    27
4       O=C(Nc1cc(Cl)cc(Cl)c1)c1cc(Cl)ccc1O    %                    26

Here's the next entry for you.
GET /values?item= `O=C(Nc1cc(F)cc(F)c1)c1cc(Cl)ccc1O` &system= P2X purinoceptor 1 (Homo sapiens) returns inhibition: 14

---

molecular target: P2X purinoceptor 1 (Homo sapiens); experiment: Antagonist activity P2X1 receptor in Apyrase pre-treated human platelets assessed as inhibition of TRAP6-induced platelet aggregation pre-incubated for 30 mins before TRAP6 stimulation by aggregometry relative to control; type: cell-based
# inhibition per entry
The answer is to be given in %; state only the numeric part.

Some entries whose results are on file:
> print(dat)
                               input.smiles                experimental.system  observed.property  recorded.measurement
1         O=C(Nc1cc(F)cc(F)c1)c1cc(Cl)ccc1O  P2X purinoceptor 1 (Homo sapiens)         inhibition                     5
2  O=S(=O)(Nc1cc(C(F)(F)F)cc(C(F)(F)F)c1)c1cc(Cl)ccc1O  P2X purinoceptor 1 (Homo sapiens)         inhibition                     8
3       O=C(Nc1cc(Cl)cc(Cl)c1)c1cc(Cl)ccc1O  P2X purinoceptor 1 (Homo sapiens)         inhibition                    13

Next molecule, please.
For reference, reported inhibition for `O=C(Nc1ccc(C(F)(F)F)cc1)c1cc(Cl)ccc1O` stands at 6

---

// reported inhibition per item
Biological target: P2X purinoceptor 1 (Homo sapiens) (UniProt P51575)
Sequence (whole entry): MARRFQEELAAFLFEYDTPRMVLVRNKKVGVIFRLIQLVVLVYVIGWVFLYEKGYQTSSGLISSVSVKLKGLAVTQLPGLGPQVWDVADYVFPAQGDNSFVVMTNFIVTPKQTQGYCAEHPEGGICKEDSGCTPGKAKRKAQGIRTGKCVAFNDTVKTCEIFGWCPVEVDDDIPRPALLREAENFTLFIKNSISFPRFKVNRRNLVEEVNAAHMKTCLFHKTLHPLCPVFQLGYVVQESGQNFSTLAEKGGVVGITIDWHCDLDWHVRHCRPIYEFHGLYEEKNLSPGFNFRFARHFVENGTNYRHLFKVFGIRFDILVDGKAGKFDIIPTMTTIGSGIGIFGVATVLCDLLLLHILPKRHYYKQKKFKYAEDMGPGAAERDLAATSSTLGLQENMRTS
Test: Antagonist activity at non-desensitizing human P2X1 receptor ( P2X2/P2X1 chimera) expressed in human 1321N1 cells assessed as inhibition of ATP-induced calcium influx at 100 uM pre-incubated for 30 mins before ATP stimulation by FLIPR assay relative to control
Assay type: cell-based
Write the answer as a number in %, unit excluded.

> print(dat)
                               input.smiles  recorded.measurement
1  O=C(Nc1cc([N+](=O)[O-])cc(C(F)(F)F)c1)c1cccc(Cl)c1O                    83

Reported inhibition ( `O=C(Nc1cccc(Br)c1)c1ccccc1O` ) = 98

Entry `O=C(Nc1ccc(Cl)c([N+](=O)[O-])c1)c1cc(Cl)ccc1O` — recorded inhibition = 80

According to the records, this compound `O=C(Nc1cc(C(F)(F)F)cc(C(F)(F)F)c1)N1CCCc2cccc(O)c21` displays inhibition of 77

Just so you know, measured inhibition for `O=C(Nc1cccc(OC(F)(F)F)c1)c1cc(Cl)ccc1O` came out at 100

---

The entries below are paired with their reported inhibition.
target: P2X purinoceptor 2 (Homo sapiens); experiment: Antagonist activity at human P2X2 receptor expressed in human 1321N1 cells assessed as inhibition of ATP-induced cytosolic calcium influx at 10 uM preincubated for 30 mins followed by ATP addition by Fluo-4 AM dye-based fluorescence assay relative to control; type: cell-based
Give the quantity in %, number only.

Solved cases below.
> print(dat)
                            input.smiles  recorded.measurement
1        O=C(Nc1cccc(Cl)c1)c1cc(Cl)ccc1O                     0
2  O=C(Nc1ccc(C(F)(F)F)cc1)c1cc(Cl)ccc1O                     3

inhibition reading for `O=C(Nc1cc(F)cc(F)c1)c1cc(Cl)ccc1O` : 4

Form: molecule = `O=C(Nc1cccc(C(F)(F)F)c1)c1cc(Cl)ccc1O` ; inhibition = 5

What the record says about `O=C(Nc1cc(C(F)(F)F)cc(C(F)(F)F)c1)c1cc(Cl)ccc1O` : inhibition is -7

Query `O=C(Nc1cc([N+](=O)[O-])cc(C(F)(F)F)c1)c1cc(Cl)ccc1O` yields inhibition of 5

The molecule identified as `O=C(Nc1cc(C(F)(F)F)cc(C(F)(F)F)c1)c1ccccc1O` registered its inhibition at 15

The reported value for `O=C(Nc1cc(Cl)cc(Cl)c1)c1cc(Cl)ccc1O` in terms of inhibition is -5

Entry under test: `O=C(Nc1cc(C(F)(F)F)cc(C(F)(F)F)c1)c1cccc(Cl)c1O` . Its inhibition was 13

Reported inhibition of `O=C(Nc1cc(C(F)(F)F)cc(C(F)(F)F)c1)c1ccc(Cl)cc1O` : -5

---

biological target: P2X purinoceptor 1 (Homo sapiens) (UniProt P51575); test: Antagonist activity at non-desensitizing human P2X1 receptor ( P2X2/P2X1 chimera) expressed in human 1321N1 cells assessed as inhibition of ATP-induced calcium influx at 10 uM pre-incubated for 30 mins before ATP stimulation by FLIPR assay relative to control; format: cell-based
Reported inhibition values for a set of compounds
Write it as a number; the unit % goes unstated.

> print(dat)
                               input.smiles  observed.property  uom  recorded.measurement
1  CN(C(=O)c1cc(Cl)ccc1O)c1cc(C(F)(F)F)cc(C(F)(F)F)c1         inhibition    %                    88
2  Cc1ccc(O)c(C(=O)Nc2cc(C(F)(F)F)cc(C(F)(F)F)c2)c1         inhibition    %                    91
3           O=C(Nc1cccc(Cl)c1)c1cc(Cl)ccc1O         inhibition    %                    64
4           O=C(Nc1ccc2cc[nH]c2c1)c1ccccc1O         inhibition    %                    11

Per the records, this compound ( `O=C(Nc1ccc([N+](=O)[O-])cc1)c1cc(Cl)ccc1O` ) has inhibition equal to 43

get_value(item= `O=C(Nc1cc(C(F)(F)F)cc(C(F)(F)F)c1)c1cccc(C(F)(F)F)c1` , readout=inhibition) returns 63
